# System: purified β-glucosidase from Candida peltata Y-21603
# test: Substrate specificity and kinetic analysis (Lineweaver-Burk)
# Format: biochemical
# particulars: disaccharides; purified enzyme
assayEndpoint: activity on substrate (relative rate of hydrolysis)

>>> print(df.to_string())
                                   compound  result
0  OC[C@H]1O[C@H](O[C@H]2[C@H](O)[C@@H](O)[C@H](O)O[C@@H]2CO)[C@H](O)[C@@H](O)[C@@H]1O    < 5%
1  OC[C@H]1O[C@@](CO)(O[C@H]2O[C@H](CO)[C@@H](O)[C@H](O)[C@H]2O)[C@@H](O)[C@@H]1O    < 5%
2  OC[C@H]1O[C@@H](O[C@H]2[C@H](O)[C@@H](O)C(O)O[C@@H]2CO)[C@H](O)[C@@H](O)[C@H]1O (stereo partly shown)    < 5%
3  OC[C@H]1O[C@H](O[C@H]2O[C@H](CO)[C@@H](O)[C@H](O)[C@H]2O)[C@H](O)[C@@H](O)[C@@H]1O    < 5%
